The values you see were collected from patent US10800791B2.

Documented IC50 across a set of molecules
- target desc: human (hACC2) (Homo sapiens)
- Sequence (O00763 whole entry): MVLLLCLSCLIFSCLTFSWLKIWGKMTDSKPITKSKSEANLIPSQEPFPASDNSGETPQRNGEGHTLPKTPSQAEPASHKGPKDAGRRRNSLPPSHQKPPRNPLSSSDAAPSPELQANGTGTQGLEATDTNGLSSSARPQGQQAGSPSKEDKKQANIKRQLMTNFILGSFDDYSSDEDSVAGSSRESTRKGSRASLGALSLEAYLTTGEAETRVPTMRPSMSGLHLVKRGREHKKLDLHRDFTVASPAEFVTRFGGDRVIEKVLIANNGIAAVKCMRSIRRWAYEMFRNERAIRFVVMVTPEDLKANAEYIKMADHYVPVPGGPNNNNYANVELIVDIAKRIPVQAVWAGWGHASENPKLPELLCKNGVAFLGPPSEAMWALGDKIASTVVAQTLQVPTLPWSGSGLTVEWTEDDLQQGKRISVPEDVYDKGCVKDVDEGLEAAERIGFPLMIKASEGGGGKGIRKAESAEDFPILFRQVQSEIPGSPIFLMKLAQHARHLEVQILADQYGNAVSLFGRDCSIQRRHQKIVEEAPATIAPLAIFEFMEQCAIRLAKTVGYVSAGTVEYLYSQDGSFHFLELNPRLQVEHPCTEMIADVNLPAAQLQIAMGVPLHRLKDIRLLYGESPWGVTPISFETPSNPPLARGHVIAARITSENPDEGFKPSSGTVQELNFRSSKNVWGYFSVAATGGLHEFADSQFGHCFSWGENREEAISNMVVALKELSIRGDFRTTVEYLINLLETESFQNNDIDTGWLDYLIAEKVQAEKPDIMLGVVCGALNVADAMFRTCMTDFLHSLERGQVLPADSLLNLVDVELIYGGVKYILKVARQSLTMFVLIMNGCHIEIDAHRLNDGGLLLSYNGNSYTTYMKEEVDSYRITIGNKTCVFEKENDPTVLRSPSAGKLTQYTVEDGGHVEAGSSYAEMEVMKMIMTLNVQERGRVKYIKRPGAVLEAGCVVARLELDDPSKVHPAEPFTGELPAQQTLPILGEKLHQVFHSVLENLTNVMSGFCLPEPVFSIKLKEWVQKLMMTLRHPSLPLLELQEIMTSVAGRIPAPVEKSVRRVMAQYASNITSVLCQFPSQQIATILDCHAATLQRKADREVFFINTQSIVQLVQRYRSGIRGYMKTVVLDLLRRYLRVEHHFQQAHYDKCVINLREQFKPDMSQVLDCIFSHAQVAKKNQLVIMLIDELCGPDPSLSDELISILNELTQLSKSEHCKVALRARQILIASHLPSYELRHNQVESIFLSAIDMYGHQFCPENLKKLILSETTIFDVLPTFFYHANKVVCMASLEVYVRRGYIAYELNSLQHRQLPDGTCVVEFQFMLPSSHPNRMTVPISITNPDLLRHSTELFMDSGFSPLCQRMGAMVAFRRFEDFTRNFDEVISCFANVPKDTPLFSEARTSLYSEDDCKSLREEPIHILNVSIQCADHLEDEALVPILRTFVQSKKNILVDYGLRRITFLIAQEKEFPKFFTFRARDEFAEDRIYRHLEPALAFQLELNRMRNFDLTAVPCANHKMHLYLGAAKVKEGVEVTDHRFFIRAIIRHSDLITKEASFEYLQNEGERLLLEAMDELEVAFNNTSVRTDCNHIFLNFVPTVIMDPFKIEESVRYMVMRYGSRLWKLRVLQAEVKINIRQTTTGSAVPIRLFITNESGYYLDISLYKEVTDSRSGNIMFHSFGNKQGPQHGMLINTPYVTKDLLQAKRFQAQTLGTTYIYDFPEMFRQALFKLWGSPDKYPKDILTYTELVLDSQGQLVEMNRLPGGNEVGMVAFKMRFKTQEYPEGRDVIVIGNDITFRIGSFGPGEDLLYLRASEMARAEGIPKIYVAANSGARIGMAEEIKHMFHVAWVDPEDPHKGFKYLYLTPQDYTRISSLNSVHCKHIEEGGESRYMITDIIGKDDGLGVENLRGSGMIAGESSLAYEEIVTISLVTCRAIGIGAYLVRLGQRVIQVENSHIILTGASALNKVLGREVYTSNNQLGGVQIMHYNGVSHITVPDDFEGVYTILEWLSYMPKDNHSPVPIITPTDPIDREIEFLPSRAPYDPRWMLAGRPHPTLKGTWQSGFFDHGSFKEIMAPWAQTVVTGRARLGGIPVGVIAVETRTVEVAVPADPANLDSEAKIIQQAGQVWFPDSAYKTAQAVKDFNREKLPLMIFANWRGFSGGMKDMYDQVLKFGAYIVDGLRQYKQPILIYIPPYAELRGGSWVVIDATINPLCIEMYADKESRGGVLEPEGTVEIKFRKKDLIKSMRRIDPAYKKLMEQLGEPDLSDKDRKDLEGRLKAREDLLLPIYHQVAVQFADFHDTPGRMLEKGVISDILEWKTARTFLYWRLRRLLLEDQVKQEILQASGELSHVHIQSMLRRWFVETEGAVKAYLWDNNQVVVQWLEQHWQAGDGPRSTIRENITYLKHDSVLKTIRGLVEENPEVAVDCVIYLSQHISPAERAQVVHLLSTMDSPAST
- protocol description: In vitro ACC inhibition assay (ADP-Glo), hACC2
- Type: biochemical
- reported conditions: Table 2b, additional results, 5 nM ACC2, 20 μM ATP, 20 μM acetyl-CoA

The cases that follow already have their IC50 on record.
INSERT INTO measurements (molecule, target_desc, result) VALUES
  ('COc1ccc(F)cc1[C@H](Cn1c(=O)n(C(C)(C)C(=O)NC(C)C)c(=O)c2c(C)c(-n3nccn3)sc21)OCCC(=O)NO [Compound I-218]', 'human (hACC2) (Homo sapiens)', '10 to 40 nM'),
  ('COCCO[C@@H](Cn1c(=O)n(C(C)(C)C(=O)N2CCCC2)c(=O)c2c(C)c(-n3nccn3)sc21)c1cc(F)ccc1OC [Compound I-60]', 'human (hACC2) (Homo sapiens)', '10 to 40 nM'),
  ('Cc1c(-n2nccn2)sc2c1c(=O)n(C(C)(C)C(=O)NC(C)C)c(=O)n2C[C@H](OC1CCOCC1)c1cc(F)ccc1OCc1ccccc1 [Compound I-107]', 'human (hACC2) (Homo sapiens)', '5 to 10 nM'),
  ('COc1ccc(Cl)cc1[C@H](Cn1c(=O)n(C(C)(C)C(=O)NC2CCC2)c(=O)c2c(C)c(-n3nccn3)sc21)OC1CCOCC1 [Compound I-228]', 'human (hACC2) (Homo sapiens)', '5 to 10 nM');

Just so you know, measured IC50 for COc1ccc(F)cc1[C@H](Cn1c(=O)n([C@H](C)C(=O)NC(C)C)c(=O)c2c(C)c(-n3nccn3)sc21)OCC(C)(C)O [Compound I-171] came out at 10 to 40 nM

Value of measured IC50 for the entry COc1ccc(F)cc1[C@H](Cn1c(=O)n(C(C)(C)C(N)=O)c(=O)c2c(C)c(-n3nccn3)sc21)OC[C@H](C)C#N [Compound I-153] : 1 to 5 nM

Measured IC50, Cc1c(-n2nccn2)sc2c1c(=O)n(C(C)(C)C(=O)NC(C)C)c(=O)n2C[C@H](OC1CCOCC1)c1cc(F)ccc1OCCO [Compound I-111] : 1 to 5 nM

Form: molecule = COc1ccc(F)cc1[C@H](Cn1c(=O)n(C(C)(C)C(=O)NC(C)C)c(=O)c2c(C)c(-n3nccn3)sc21)OCC#N [Compound I-144] ; IC50 = 5 to 10 nM

Noted for COc1ccc(F)cc1[C@H](Cn1c(=O)n([C@H](C)C(N)=O)c(=O)c2c(C)c(-n3nccn3)sc21)OCC(C)(C)C#N [Compound I-212] : its IC50 reads 1 to 5 nM

For this molecule ( COc1ccc(F)cc1[C@H](Cn1c(=O)n([C@H](C)C(=O)NC2CCC2)c(=O)c2c(C)c(-n3nccn3)sc21)OCCO [Compound I-84] ), measured IC50 is 5 to 10 nM

Notebook: CCNC(=O)C(C)(C)n1c(=O)c2c(C)c(-n3nccn3)sc2n(C[C@H](OCCC#N)c2ccccc2OC)c1=O [Compound I-142] , IC50 read as 1 to 5 nM

# IC50 (molecule: COc1ccc(F)cc1[C@H](Cn1c(=O)n([C@@H](C)C(=O)N(C)C(C)C)c(=O)c2c(C)c(-n3nccn3)sc21)OC1CCC(=O)CC1 [Compound I-165] ) is 5 to 10 nM
